System: NCI-H292
Experiment: Cytotoxicity against human NCI-H292 cells after 72 hrs by MTT assay
Type: functional, cell-based
Conditions: NCI-H292, 72 h
outcome-measure: pIC50
# pIC50 is unitless: minus log10 of the molar concentration; print number only

NCI-H292 / pIC50 / C/C=C(/C)C(=O)OC[C@H]1c2c(O)c(OC)c(C)c(O)c2C[C@H]2[C@H]3c4c(O)c(OC)c(C)c(O)c4C[C@H]([C@H](C#N)N12)N3C : value?
8.77

NCI-H292 / pIC50 / C/C=C(/C)C(=O)OC[C@H]1c2c(O)c(OC)c(C)c(OC(=O)CCCC)c2C[C@H]2[C@H]3C4=C(C[C@H]([C@H](C#N)N12)N3C)C(=O)C(C)=C(OC)C4=O : value?
7.44

NCI-H292 / pIC50 / C/C=C(/C)C(=O)OC[C@H]1c2c(c(O)c(C)c3c2OCO3)C[C@H]2[C@H]3C4=C(C[C@H]([C@H](C#N)N12)N3C)C(=O)C(C)=C(OC)C4=O : value?
7.21
